Recorded Percent Blocking of Ang-2FD Binding to Tie-2 values for a group of binders are listed next.
- Target desc: T1, Dimeric Monkey Ang-2FD conjugated to human IgG1 (monkey (Macca fascicularis); human)
- T1 construct: also called Monkey Ang-2FD-hFc
- Assay procedure: competition ELISA, 16.67 nM Ab, coated hTie-2-mFc
Express your answer in %, writing the number without its unit.

The following binders have reported results that may help.
[[record]]
binder = "H2M744N (antibody, V domains shown) VH: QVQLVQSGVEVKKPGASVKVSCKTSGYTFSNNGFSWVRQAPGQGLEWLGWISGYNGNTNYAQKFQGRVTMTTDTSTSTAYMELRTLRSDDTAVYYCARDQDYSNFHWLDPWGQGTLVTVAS VL: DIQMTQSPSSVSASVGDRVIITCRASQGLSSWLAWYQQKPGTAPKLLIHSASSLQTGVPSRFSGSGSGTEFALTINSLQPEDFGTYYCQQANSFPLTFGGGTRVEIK"
quantitative_result = 95.5

[[record]]
binder = "H1M732N (antibody, V domains shown) VH: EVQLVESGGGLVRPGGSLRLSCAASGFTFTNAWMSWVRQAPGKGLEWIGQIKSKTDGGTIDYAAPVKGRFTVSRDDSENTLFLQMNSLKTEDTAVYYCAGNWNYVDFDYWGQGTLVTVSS VL: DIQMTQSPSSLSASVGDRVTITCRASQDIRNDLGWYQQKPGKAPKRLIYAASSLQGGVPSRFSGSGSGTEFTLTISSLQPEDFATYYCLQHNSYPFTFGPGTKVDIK"
quantitative_result = 95.8


Consider the record given below.
Documented Percent Blocking of Ang-2FD Binding to Tie-2 of H1M728N (antibody, V domains shown) VH: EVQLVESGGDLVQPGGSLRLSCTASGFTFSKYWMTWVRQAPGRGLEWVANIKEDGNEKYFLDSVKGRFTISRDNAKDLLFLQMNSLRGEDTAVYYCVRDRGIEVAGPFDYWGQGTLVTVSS VL: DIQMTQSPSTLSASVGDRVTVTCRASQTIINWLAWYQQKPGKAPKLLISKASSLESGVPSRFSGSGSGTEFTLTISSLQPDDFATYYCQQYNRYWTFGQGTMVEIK : 97.1
